assayed.system: T1, human FLT3 on the AML5 cell line (human, UniProt P36888 27-993)
T1 sequence (looked up): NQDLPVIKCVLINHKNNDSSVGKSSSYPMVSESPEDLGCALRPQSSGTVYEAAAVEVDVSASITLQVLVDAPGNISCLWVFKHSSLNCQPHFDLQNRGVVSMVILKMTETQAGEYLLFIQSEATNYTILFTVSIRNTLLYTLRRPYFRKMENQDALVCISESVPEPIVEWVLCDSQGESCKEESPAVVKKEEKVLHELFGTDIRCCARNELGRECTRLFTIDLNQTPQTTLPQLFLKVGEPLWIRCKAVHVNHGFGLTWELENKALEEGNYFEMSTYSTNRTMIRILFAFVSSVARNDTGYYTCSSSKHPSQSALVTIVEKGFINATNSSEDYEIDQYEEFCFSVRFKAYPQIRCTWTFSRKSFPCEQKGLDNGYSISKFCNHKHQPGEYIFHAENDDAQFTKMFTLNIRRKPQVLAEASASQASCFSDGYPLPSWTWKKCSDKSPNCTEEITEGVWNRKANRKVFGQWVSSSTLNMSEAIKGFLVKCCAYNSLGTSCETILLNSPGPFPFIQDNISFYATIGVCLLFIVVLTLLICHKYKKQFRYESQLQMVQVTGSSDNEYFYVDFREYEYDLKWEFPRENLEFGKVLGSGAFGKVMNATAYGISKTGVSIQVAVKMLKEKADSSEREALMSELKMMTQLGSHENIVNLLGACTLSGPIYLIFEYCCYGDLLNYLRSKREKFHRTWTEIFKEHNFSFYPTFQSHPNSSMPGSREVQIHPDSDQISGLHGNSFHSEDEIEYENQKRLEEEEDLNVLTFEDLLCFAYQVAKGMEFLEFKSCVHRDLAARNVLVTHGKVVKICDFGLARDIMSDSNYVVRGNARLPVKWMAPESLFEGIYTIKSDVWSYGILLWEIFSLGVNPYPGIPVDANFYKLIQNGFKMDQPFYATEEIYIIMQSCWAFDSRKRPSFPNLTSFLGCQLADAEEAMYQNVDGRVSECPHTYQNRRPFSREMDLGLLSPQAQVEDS
protocol.notes: cell-based or functional assay

# binder, EC50 (nM), AML5 proliferation
records = [
    ("human FLT3-ligand (H8Y) human hingeless IgG1 fusion protein (SEQ ID NO:22) (Fc fusion) TQDCSFQYSPISSDFAVKIRELSDYLLQDYPVTVASNLQDEELCGGLWRLVLAQRWMERLKTVAGSKMQGLLERVNTEIHFVTKCAFQPPPSCLRFVQTNISRLLQETSEQLVALKPWITRQNFSRCLELQCQPDSSTLPPPWSPRPLEATAPTAPQGGPSVFLFPPKPKDTLMISRTPEVTCVVVDVSHEDPEVKFNWYVDGVEVHNAKTKPREEQYNSTYRVVSVLTVLHQDWLNGKEYKCKVSNKALPAPIEKTISKAKGQPREPQVYTLPPSREEMTKNQVSLTCLVKGFYPSDIAVEWESNGQPENNYKTTPPVLDSDGSFFLYSKLTVDKSRWQQGNVFSCSVMHEALHNHYTQKSLSLSPGK", 0.014),
]
